Tested on: UO-31
MEASUREMENT PROTOCOL: NCI-60 cell line panel: UO-31
Type: cell-based
SETUP CONDITIONS: Homo sapiens, Renal Cancer
Quick list: IC50 per entry.

MOLECULE: CCN1CCN(c2ccc(NC(=O)Nc3ccc(-c4cc(C(=O)NC(C)C)c5ncccc5n4)cc3)cc2C(F)(F)F)CC1 [Compound 13f]
IC50, nM: 2180

MOLECULE: CCN1CCN(c2ccc(NC(=O)Nc3ccc(-c4cc(C(=O)NC)c5ncccc5n4)cc3)cc2C(F)(F)F)CC1 [Compound 13c]
IC50, nM: 2710

MOLECULE: CC(C)NC(=O)c1cc(-c2ccc(NC(=O)Nc3ccc(N4CCN(C)CC4)c(C(F)(F)F)c3)cc2)nc2cccnc12 [Compound 13e]
IC50, nM: 590

MOLECULE: CNC(=O)c1cc(-c2ccc(NC(=O)Nc3ccc(N4CCN(C)CC4)c(C(F)(F)F)c3)cc2)nc2cccnc12 [Compound 13b]
IC50, nM: 15300

====

Test system: MOLT-4
MEASUREMENT PROTOCOL: NCI-60 cell line panel: MOLT-4
Format: cell-based
SETUP CONDITIONS: Homo sapiens, Leukemia
Quick list: IC50 per entry.

COMPOUND: CCN1CCN(c2ccc(NC(=O)Nc3ccc(-c4cc(C(=O)NC)c5ncccc5n4)cc3)cc2C(F)(F)F)CC1 [Compound 13c]
IC50, µM: 0.7
//
COMPOUND: CCN1CCN(c2ccc(NC(=O)Nc3ccc(-c4cc(C(=O)NC(C)C)c5ncccc5n4)cc3)cc2C(F)(F)F)CC1 [Compound 13f]
IC50, µM: 1.11
//
COMPOUND: CC(C)NC(=O)c1cc(-c2ccc(NC(=O)Nc3ccc(N4CCN(C)CC4)c(C(F)(F)F)c3)cc2)nc2cccnc12 [Compound 13e]
IC50, µM: 0.76
//
COMPOUND: CNC(=O)c1cc(-c2ccc(NC(=O)Nc3ccc(N4CCN(C)CC4)c(C(F)(F)F)c3)cc2)nc2cccnc12 [Compound 13b]
IC50, µM: 2.79

====

Tested on: K-562
MEASUREMENT PROTOCOL: NCI-60 cell line panel: K-562
Assay type: cell-based
Parameters: unit not given here
SETUP CONDITIONS: Leukemia, total growth inhibition
Quick list: TGI per entry.
MEASURED ATTRIBUTE: TGI

COMPOUND: CCN1CCN(c2ccc(NC(=O)Nc3ccc(-c4cc(C(=O)NC)c5ncccc5n4)cc3)cc2C(F)(F)F)CC1 [Compound 13c]
MEASURED ATTRIBUTE: TGI
OBSERVED RESULT: >18.0
--
COMPOUND: CNC(=O)c1cc(-c2ccc(NC(=O)Nc3ccc(N4CCN(C)CC4)c(C(F)(F)F)c3)cc2)nc2cccnc12 [Compound 13b]
MEASURED ATTRIBUTE: TGI
OBSERVED RESULT: 5.35
--
COMPOUND: CCN1CCN(c2ccc(NC(=O)Nc3ccc(-c4cc(C(=O)NC(C)C)c5ncccc5n4)cc3)cc2C(F)(F)F)CC1 [Compound 13f]
MEASURED ATTRIBUTE: TGI
OBSERVED RESULT: >34.5
--
COMPOUND: CC(C)NC(=O)c1cc(-c2ccc(NC(=O)Nc3ccc(N4CCN(C)CC4)c(C(F)(F)F)c3)cc2)nc2cccnc12 [Compound 13e]
MEASURED ATTRIBUTE: TGI
OBSERVED RESULT: >38.8

Values compiled from patent US20240308996A1.
